The reported numbers originate from ChEMBL document CHEMBL3882724.

Measured IC50, listed per entry.
target: Steroid 17-alpha-hydroxylase/17,20 lyase (Homo sapiens, UniProt P05093); test: Inhibition of CYP17 in human testicular microsomes using 17alpha-hydroxypregnenolone as substrate assessed as decrease in DHEA levels at 1 nM after 90 mins by ELISA relative to control; set-up: species or system Testis
Sequence (P05093 whole entry): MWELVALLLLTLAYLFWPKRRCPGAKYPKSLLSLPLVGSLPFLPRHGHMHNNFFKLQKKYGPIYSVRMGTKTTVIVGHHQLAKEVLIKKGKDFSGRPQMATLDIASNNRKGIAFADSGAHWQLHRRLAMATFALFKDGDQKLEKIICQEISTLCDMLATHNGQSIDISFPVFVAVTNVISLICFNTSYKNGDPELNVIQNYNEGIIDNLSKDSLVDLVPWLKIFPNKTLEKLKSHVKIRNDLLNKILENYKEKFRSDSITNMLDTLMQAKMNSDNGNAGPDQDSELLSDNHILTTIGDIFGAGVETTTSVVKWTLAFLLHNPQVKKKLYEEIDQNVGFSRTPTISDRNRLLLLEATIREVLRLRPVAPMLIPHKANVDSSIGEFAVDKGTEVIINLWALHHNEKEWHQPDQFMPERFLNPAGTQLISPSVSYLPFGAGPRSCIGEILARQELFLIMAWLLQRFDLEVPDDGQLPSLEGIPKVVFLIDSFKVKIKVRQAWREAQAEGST

Example cases with answers are listed next.
CC1C[C@@H]2[C@H](CC[C@]3(C)C(c4cccnc4)=CC[C@@H]23)[C@@]2(C)C=CC(=O)C=C12 (stereo partly specified)    ≤ 10 nM
CC1C[C@@H]2[C@H](CC[C@]3(C)C(c4cccnc4)CC[C@@H]23)[C@@]2(C)CCNC(=O)C=C12 (stereo partly specified)    ≤ 10 nM
C=C1C[C@H]2C3=CC=C(c4cncc(F)c4)[C@@]3(C)CC[C@@H]2[C@@]2(C)CCC(=O)C=C12    10 to 100 nM

Looking up `C=C1C[C@H]2C3=CC=C(c4cccnc4)[C@@]3(C)CC[C@@H]2[C@@]2(C)CCC(=O)C=C12` , I see its IC50 listed as 10 to 100 nM

Looking up `C[C@]12CC[C@H]3[C@@H](CCC4=CC(=O)CC[C@@]43C)C1=CC=C2c1cncc(F)c1` , I see its IC50 listed as 10 to 100 nM

Looking up `C[C@]12CC[C@H]3[C@@H](C=CC4=CC(=O)CC[C@@]43C)C1=CC=C2c1cccnc1` , I see its IC50 listed as 10 to 100 nM

Looking up `C[C@]12CC/C(=N\O)C=C1C1(CC1)C[C@@H]1[C@@H]2CC[C@]2(C)C(c3cccnc3)=CC[C@@H]12` , I see its IC50 listed as > 100 nM

Looking up `CC1=C2CC[C@H]3C4=CC=C(c5cccnc5)[C@@]4(C)CC[C@@H]3[C@@]2(C)CCC1=O` , I see its IC50 listed as > 100 nM

Looking up `C[C@]12C=CC(=O)C=C1C1(CC1)C[C@@H]1[C@@H]2CC[C@]2(C)C(c3cccnc3)=CC[C@@H]12` , I see its IC50 listed as ≤ 10 nM

====

assay: Half life in human liver microsomes at 1 uM by LC-MS/MS analysis
PROPERTY_LABEL: half-life at 1 µM

Example cases with answers are listed next.
C[C@]12CCC(=O)C=C1C(F)C[C@@H]1[C@@H]2CC[C@]2(C)C(c3cncc(F)c3)=CC[C@@H]12 (some centres not stated)    1 to 50 min
CCc1cncc(C2=CC[C@H]3[C@@H]4CCC5=CC(=O)NCC[C@]5(C)[C@H]4CC[C@]23C)c1    10 to 60 min
C[C@]12CC[C@H]3[C@@H](CC[C@H]4CC(=O)CC[C@@]43C)C1=CC=C2n1ccnc1    1 to 50 min
C[C@]12CCNC(=O)C=C1CC[C@@H]1[C@@H]2CC[C@]2(C)C(n3ccnn3)=CC[C@@H]12    ≥ 50 min
C[C@]12CC[C@H]3[C@@H](C=CC4=CC(=O)CC[C@@]43C)C1=CC=C2c1cccnc1    1 to 50 min

Looking up `Cc1cncc(C2=CC[C@H]3[C@@H]4CC[C@H]5COC(=O)CC[C@]5(C)[C@H]4CC[C@]23C)c1` , I see its half-life at 1 µM listed as 1 to 10 min

Looking up COc1cncc(C2=CC[C@H]3[C@@H]4CC(=O)C5CCCC[C@]5(C)[C@H]4CC[C@]23C)c1 (some centres not stated) , I see its half-life at 1 µM listed as 1 to 10 min
